Sourced from ChEMBL document CHEMBL1155700

Test system: Raji
Experiment: Inhibition of 12-O-tetradecanoylphorbol-13-acetate-induced EBV-early antigen activation in human Raji cells assessed as EA activation at 1000 molar ratio after 48 hrs relative to TPA
Format: cell-based
Design: scale not given: the % may be the effect or the level left
Settings: human gammaherpesvirus 4
Activity values, listed per item
// note: answer is a bare numeric in %

Observe how each entry below is paired with its result.
# Compound, Unit Symbol, Activity
measured = [
    ("COc1c(O)cc2c(c1CC=C(C)C)OC(=O)c1c(cc(O)c(CC=C(C)C)c1O)O2 [GARCINISIDONE A]", "%", 0),
    ("CC(C)=CCc1c(O)c(CC=C(C)C)c2c(c1O)C(=O)Oc1c(cc(O)c3c1C=CC(C)(C)O3)O2 [GARCINISIDONE E]", "%", 0),
    ("COc1c(O)cc2c(c1CC=C(C)C)OC(=O)c1c(cc3c(c1O)C=CC(C)(C)O3)O2 [GARCINISIDONE B]", "%", 0),
    ("CC(C)=CCc1c2c(c(O)c3c1Oc1cc(O)c4c(c1OC3=O)C=CC(C)(C)O4)C=CC(C)(C)O2 [GARCINISIDONE C]", "%", 0),
    ("CC1=C(/C=C/C(C)=C/C=C/C(C)=C/C=C/C=C(C)/C=C/C=C(C)/C=C/C2=C(C)CCCC2(C)C)C(C)(C)CCC1 [BETA CAROTENE]", "%", 9.1),
]

Prompt: Dear colleague, I am looking for the recorded Activity of the following compound: CC(C)=CCc1c(O)c2c(c3c1OC(C)(C)C=C3)Oc1cc(O)c3c(c1OC2=O)C=CC(C)(C)O3 [GARCINISIDONE D]
Completion: 0
